- Assay Summary: Solubility of Compound I in MEK/water mixtures
- Format: physicochemical
- Experimental Setup: 25 °C, organic solvent or mixture, thermodynamic from solid, MEK with 8% water by volume
Quantity Kind: solubility (mg/mL)

Smiles Notation: Cc1cc(N2CCN(c3ccc(C(=O)Nc4ccc(F)cc4)cc3)CC2)ccc1OC[C@@H]1CO[C@@](Cn2cncn2)(c2ccc(F)cc2F)C1
Quantity Kind: solubility
Experimental Value: 23

###

- Assay Summary: Comparative pharmacokinetic profiling of Forms 1 and 2 by inhalation administration to rats
- Format: in vivo, male RccHan:WIST rat
- Experimental Setup: male, RccHan:WIST, rat, plasma, inhaled, 2.2 mg/kg, inhalation, nominal 2.2 mg/kg, 28 hr, group mean, read-out: Drug Concentration Mean (plasma)

Molecule: Cc1cc(N2CCN(c3ccc(C(=O)Nc4ccc(F)cc4)cc3)CC2)ccc1OC[C@@H]1CO[C@@](Cn2cncn2)(c2ccc(F)cc2F)C1 [Form 1]
Unit Abbreviation: ng/mL
concentration at 28 h: 2.38

###

- Assay Summary: Micronisation: particle size distribution and polymorphic integrity
- Assay type: physicochemical
- Experimental Setup: after micronisation
- From the text: Liquid suspension and aerosol formulations (whether pressurised or unpressurised) will typically contain the compound of the invention in particulate form, for example with a D50 of 0.5-10 μm, suitably around 1-5 μm, such as 1-2 μm. […] The resultant particle size distribution may be measured using laser diffraction (e.g. with a Malvern Mastersizer 2000S instrument). […] As used herein Dv values refer to particle size distributions measured using laser diffraction. […]
Collected particle size distribution D10 values appear next to each entry.
Quantity Kind: particle size distribution D10 (µm)

Compound: Cc1cc(N2CCN(c3ccc(C(=O)Nc4ccc(F)cc4)cc3)CC2)ccc1OC[C@@H]1CO[C@@](Cn2cncn2)(c2ccc(F)cc2F)C1 [Form 1]
Unit Abbreviation: µm
Experimental Value: 0.75
//
Compound: Cc1cc(N2CCN(c3ccc(C(=O)Nc4ccc(F)cc4)cc3)CC2)ccc1OC[C@@H]1CO[C@@](Cn2cncn2)(c2ccc(F)cc2F)C1 [Form 2]
Unit Abbreviation: µm
Experimental Value: 0.42

###

- Assay Summary: Comparative pharmacokinetic profiling of Forms 1 and 2 by inhalation administration to rats
- Assay type: in vivo, male RccHan:WIST rat
- Experimental Setup: male, RccHan:WIST, rat, plasma, inhaled, 2.2 mg/kg, inhalation, nominal 2.2 mg/kg, 3 hr, group mean, read-out: Drug Concentration Mean (plasma)
Quantity Kind: concentration at 3 h (ng/mL)

Compound: Cc1cc(N2CCN(c3ccc(C(=O)Nc4ccc(F)cc4)cc3)CC2)ccc1OC[C@@H]1CO[C@@](Cn2cncn2)(c2ccc(F)cc2F)C1 [Form 1]
Quantity Kind: concentration at 3 h
Unit Abbreviation: ng/mL
Experimental Value: 4.02

###

- Assay Summary: Comparative pharmacokinetic profiling of Forms 1 and 2 by inhalation administration to rats
- Format: in vivo, male RccHan:WIST rat
- Experimental Setup: male, RccHan:WIST, rat, plasma, inhaled, 2.2 mg/kg, inhalation, nominal 2.2 mg/kg, 24 hr, group mean, read-out: Drug Concentration Mean (plasma)

Compound: Cc1cc(N2CCN(c3ccc(C(=O)Nc4ccc(F)cc4)cc3)CC2)ccc1OC[C@@H]1CO[C@@](Cn2cncn2)(c2ccc(F)cc2F)C1 [Form 1]
concentration at 24 h, ng/mL: 2.85

###

- Assay Summary: Comparative pharmacokinetic profiling of Forms 1 and 2 by inhalation administration to rats
- Type: in vivo, male RccHan:WIST rat
- Experimental Setup: male, RccHan:WIST, rat, plasma, inhaled, 2.2 mg/kg, inhalation, nominal 2.2 mg/kg, 6 hr, group mean, read-out: Drug Concentration Mean (plasma)
Quantity Kind: concentration at 6 h (ng/mL)

Compound: Cc1cc(N2CCN(c3ccc(C(=O)Nc4ccc(F)cc4)cc3)CC2)ccc1OC[C@@H]1CO[C@@](Cn2cncn2)(c2ccc(F)cc2F)C1 [Form 1]
Quantity Kind: concentration at 6 h
Experimental Value: 4.95

###

- Assay Summary: Comparative pharmacokinetic profiling of Forms 1 and 2 by inhalation administration to rats
- Format: in vivo, male RccHan:WIST rat
- Experimental Setup: male, RccHan:WIST, rat, plasma, inhaled, 2.2 mg/kg, inhalation, nominal 2.2 mg/kg, 4 hr, group mean, read-out: Drug Concentration Mean (plasma)

Compound: Cc1cc(N2CCN(c3ccc(C(=O)Nc4ccc(F)cc4)cc3)CC2)ccc1OC[C@@H]1CO[C@@](Cn2cncn2)(c2ccc(F)cc2F)C1 [Form 1]
Unit Abbreviation: ng/mL
concentration at 4 h: 4.94

###

Collected particle size distribution D90 values appear next to each entry.
- Assay Summary: Micronisation: particle size distribution and polymorphic integrity
- Format: physicochemical
- Experimental Setup: after micronisation
Quantity Kind: particle size distribution D90 (µm)

Compound: Cc1cc(N2CCN(c3ccc(C(=O)Nc4ccc(F)cc4)cc3)CC2)ccc1OC[C@@H]1CO[C@@](Cn2cncn2)(c2ccc(F)cc2F)C1 [Form 1]
Quantity Kind: particle size distribution D90
Unit Abbreviation: µm
Experimental Value: 3.23

Compound: Cc1cc(N2CCN(c3ccc(C(=O)Nc4ccc(F)cc4)cc3)CC2)ccc1OC[C@@H]1CO[C@@](Cn2cncn2)(c2ccc(F)cc2F)C1 [Form 2]
Quantity Kind: particle size distribution D90
Unit Abbreviation: µm
Experimental Value: 3.57

###

- Assay Summary: Comparative pharmacokinetic profiling of Forms 1 and 2 by inhalation administration to rats
- Assay type: in vivo, male RccHan:WIST rat
- Experimental Setup: male, RccHan:WIST, rat, plasma, inhaled, 2.2 mg/kg, inhalation, nominal 2.2 mg/kg, 48 hr, group mean, read-out: Drug Concentration Mean (plasma)
Quantity Kind: concentration at 48 h

Molecule: Cc1cc(N2CCN(c3ccc(C(=O)Nc4ccc(F)cc4)cc3)CC2)ccc1OC[C@@H]1CO[C@@](Cn2cncn2)(c2ccc(F)cc2F)C1 [Form 1]
Experimental Value: 1.26 ng/mL
